Dear all, this message contains pIC50 results, target or system human HSP90 alpha protein (N-terminal, amino acids 2 to 236) (Homo sapiens (Human)).
As a rule, pIC50 stands for the negative log10 of the concentration, concentration in M.

The following compounds have reported results that may help.
- compound: "NC(=O)c1ccc(-c2nccc3c(-c4cncc(CO)c4)cccc23)cc1NC1CCC(O)CC1 (stereo not shown) [Example 17]"
  pIC50: 7.00
- compound: "Cc1nc2ncc(-c3cccc4c(-c5ccc(C(N)=O)c(NC6CCC(O)CC6)c5)nccc34)cc2[nH]1 (stereo not shown) [Example 40]"
  pIC50: 6.82

# input Provide value of pIC50 for this record tested with human HSP90 alpha protein (N-terminal, amino acids 2 to 236) (Homo sapiens (Human)): CNC(=O)c1ccc(-c2cccc3c(-c4ccc(C(N)=O)c(NC5CCC(O)CC5)c4)nccc23)cn1 (stereo not shown) [Example 56]
# output 6.43

# input Provide value of pIC50 for this record tested with human HSP90 alpha protein (N-terminal, amino acids 2 to 236) (Homo sapiens (Human)): Cn1cc(-c2cn(-c3cccc4c(-c5ccc(C(N)=O)c(N)c5)cc(C5CC5)nc34)cn2)cn1 [Example 106]
# output 7.00

# input Provide value of pIC50 for this record tested with human HSP90 alpha protein (N-terminal, amino acids 2 to 236) (Homo sapiens (Human)): Cn1cc(-c2cn(-c3cccc4c(-c5ccc(C(N)=O)c(NC6CCC(O)CC6)c5)nccc34)cn2)cn1 (stereo not shown) [Example 48]
# output 7.15

# input Provide value of pIC50 for this record tested with human HSP90 alpha protein (N-terminal, amino acids 2 to 236) (Homo sapiens (Human)): Cc1cc(-c2ccc(C(N)=O)cc2C)c2cccc(-n3cnc(-c4cnn(C)c4)c3)c2n1 [Example 102]
# output 6.60

====

Dear all, this message contains pIC50 results, target or system human HSP90 alpha protein (N-terminal, amino acids 2 to 236) (Homo sapiens (Human)).
As a rule, pIC50 stands for the negative log10 of the concentration, concentration in M.

# input What measured pIC50 goes with Cc1cc2c(-n3cnc(-c4cnn(C)c4)c3)cccc2c(-c2ccc(C(N)=O)c(N)c2)n1 [Example 71] ?
# output 6.77

# input What measured pIC50 goes with Cn1cc(-c2cn(-c3cccc4c(-c5ccc(C(N)=O)c(N)c5)nccc34)cn2)cn1 [Example 128] ?
# output 6.51

# input What measured pIC50 goes with CC(C)c1cc(-c2ccc(C(N)=O)c(N)c2)c2cccc(-n3cnc(-c4cccnc4)c3)c2n1 [Example 123] ?
# output 6.80

# input What measured pIC50 goes with Cn1cc(-c2cn(-c3cccc4c(-c5ccc(C(N)=O)c(NC(C)(C)C)c5)ccnc34)cn2)cn1 [Example 130] ?
# output 6.96

# input What measured pIC50 goes with CN(CCO)CNC(=O)c1ccc(-c2nccc3c(-c4cnc5ccccc5c4)cccc23)cc1NC1CCC(O)CC1 (stereo not shown) [Example 37] ?
# output 6.43

# input What measured pIC50 goes with CCNc1cc(-c2cc(C(F)(F)F)nc3c(-n4cnc(-c5cccnc5)c4)cccc23)ccc1C(N)=O [Example 77] ?
# output 6.77

# input What measured pIC50 goes with NC(=O)c1ccc(-c2cc(C(F)(F)F)nc3c(-n4cnc(-c5cccnc5)c4)cccc23)cc1N [Example 78] ?
# output 6.74

====

Biological target: human HSP90 alpha protein (N-terminal, amino acids 2 to 236) (Homo sapiens (Human), UniProt P07900)
Recorded pIC50, one value per entry.
As a rule, pIC50 stands for the negative log10 of the concentration, concentration in M.

# input What measured pIC50 goes with NC(=O)c1ccc(-c2nccc3c(-c4cnc5ccc(CN6CCOCC6)cc5c4)cccc23)cc1NC1CCC(O)CC1 (stereo not drawn) [Example 49] ?
# output 5.81

# input What measured pIC50 goes with CC(C)n1cc(-c2cn(-c3cccc4c(-c5ccc(C(N)=O)c(NC6CCC(O)CC6)c5)nccc34)cn2)cn1 (stereo not drawn) [Example 53] ?
# output 6.92

# input What measured pIC50 goes with CC(C)OCCNc1cc(-c2cc(C(F)(F)F)nc3c(-c4cnc5ccccc5c4)cccc23)ccc1C(N)=O [Example 111] ?
# output 6.08
